Assay: in vitro
Conditions: human, PBMC
Description: Cytotoxicity against human PBMC after 7 days by sulforhodamine B assay
We begin with a simple list: items and their reported CC50 at 168 h.
# number only, unit mM dropped from output

Request: // CC50 at 168 h lookup, key: `CCCOC(=O)OC[C@H]1O[C@@H](n2ccc(N)nc2=O)CS1`
Response: 3.33

Request: And then `CCOC(=O)OC[C@H]1O[C@@H](n2ccc(N)nc2=O)CS1` , what is it?
Response: 3

Field: next molecule
Request: // CC50 at 168 h lookup, key: `CCCCOC(=O)OC[C@H]1O[C@@H](n2ccc(N)nc2=O)CS1`
Response: 4.5

* * *

Assay: physchem
Conditions: octanol/water
Description: Lipophilicity, log P of the compound
readoutKind: logP
Answer with a bare number; do not write a unit.

As a guide, the following entries are already answered.
Request: // logP lookup, key: `CC(C)CCOC(=O)OC[C@H]1O[C@@H](n2ccc(N)nc2=O)CS1`
Response: -0.15

Request: And then `CCCCOC(=O)OC[C@H]1O[C@@H](n2ccc(N)nc2=O)CS1` , what is it?
Response: 0.86

Request: And then `CCCCCCOC(=O)OC[C@H]1O[C@@H](n2ccc(N)nc2=O)CS1` , what is it?
Response: 1.57

Request: And then `CCCCCOC(=O)OC[C@H]1O[C@@H](n2ccc(N)nc2=O)CS1` , what is it?
Response: 1.23

Request: And then `CCCCCCCCOC(=O)OC[C@H]1O[C@@H](n2ccc(N)nc2=O)CS1` , what is it?
Response: 1.72

Request: And then `CCCOC(=O)OC[C@H]1O[C@@H](n2ccc(N)nc2=O)CS1` , what is it?
Response: 0.2

Field: next molecule
Request: // logP lookup, key: `CCOC(=O)OC[C@H]1O[C@@H](n2ccc(N)nc2=O)CS1`
Response: -0.31

* * *

Test: in vitro
Details: human, PBMC
We begin with a simple list: items and their reported CC50 at 168 h.
Don't forget the unit after the number, please.

As a guide, the following entries are already answered.
Request: // CC50 at 168 h lookup, key: `CCCCCOC(=O)OC[C@H]1O[C@@H](n2ccc(N)nc2=O)CS1`
Response: 1290 µM

Request: And then `CCCCCCCCOC(=O)OC[C@H]1O[C@@H](n2ccc(N)nc2=O)CS1` , what is it?
Response: 450 µM

Request: And then `CC(C)CCOC(=O)OC[C@H]1O[C@@H](n2ccc(N)nc2=O)CS1` , what is it?
Response: 3330 µM

Field: next compound
Request: // CC50 at 168 h lookup, key: `CCCCCCOC(=O)OC[C@H]1O[C@@H](n2ccc(N)nc2=O)CS1`
Response: 857 µM
